# Measurement Target: CYP3A4 (Homo sapiens, UniProt P08684)
# Construct: utilizes human liver microsomes together with isoform-specific clinical drug probes; from tissue; host or cells: human liver microsomes
# Sequence (P08684 whole entry, canonical isoform): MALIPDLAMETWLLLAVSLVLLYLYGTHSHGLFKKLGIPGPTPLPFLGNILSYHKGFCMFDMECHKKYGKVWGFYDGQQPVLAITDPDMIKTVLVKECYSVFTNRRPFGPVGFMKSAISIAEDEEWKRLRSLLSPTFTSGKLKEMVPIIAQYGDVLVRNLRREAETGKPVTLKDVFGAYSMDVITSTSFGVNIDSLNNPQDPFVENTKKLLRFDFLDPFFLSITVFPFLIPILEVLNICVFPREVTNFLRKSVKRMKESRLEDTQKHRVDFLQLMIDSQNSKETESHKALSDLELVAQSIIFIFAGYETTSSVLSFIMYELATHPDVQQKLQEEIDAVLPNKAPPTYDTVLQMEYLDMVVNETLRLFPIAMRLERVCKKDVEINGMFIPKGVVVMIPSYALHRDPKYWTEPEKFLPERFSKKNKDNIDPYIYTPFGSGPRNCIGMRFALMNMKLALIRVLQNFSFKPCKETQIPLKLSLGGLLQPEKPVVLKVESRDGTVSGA
# Method Notes: High density DDI 3 μM cocktail screen in human liver microsomes, midazolam probe
# Type: in vitro ADME
# Particulars: human, liver microsomes, probe midazolam, read-out: % inhibition 3A4 @ 3 μM
Below, each entry is listed with its recorded inhibition at 3 µM.

Compound: COc1ccc([C@@H]2CN(c3ccc(=O)n(C)n3)C[C@H]2C(=O)N2CCCC(c3ccc(Cl)cc3)N(S(C)(=O)=O)CC2)c(F)c1 (mixture of isomers) [Example 115]
Test Result: 58.2%
//
Compound: COC(=O)N1CCN(C(=O)C2CN(c3ccc(C#N)nn3)CC2c2ccc(OC)cc2F)CCC[C@H]1c1ccc(Cl)cc1 (stereo partly drawn)
Test Result: 28.5%
//
Compound: COc1ccc([C@@H]2CN(C(C)(C)C)C[C@H]2C(=O)N2CCC[C@@H](c3ccc(Cl)cc3)N(C(C)=O)CC2)c(F)c1
Test Result: 36%
//
Compound: CCC(=O)N1CCN(C(=O)[C@@H]2CN(C(C)(C)C)C[C@H]2c2ccc(F)cc2F)CCC[C@H]1c1ccc(Cl)cc1
Test Result: 37.1%
//
Compound: COC(=O)N1CCN(C(=O)[C@@H]2CN(c3ccc(=O)n(C)n3)C[C@H]2c2ccc(Cl)cn2)CCC[C@H]1c1ccc(Cl)cc1
Test Result: 54.2%

Could you share which inhibition at 3 µM value was measured for CC(C)(C)N1C[C@@H](C(=O)N2CCC[C@@H](c3ccc(Cl)cc3)N(C(=O)C3CC(F)(F)C3)CC2)[C@H](c2ccc(F)cc2F)C1 ? 40%

---

# Measurement Target: human MC3 receptors (Homo sapiens)
# Construct: stably transfected with full length cDNA encoding human MC1 or MC3 receptors
# Sequence (P41968 whole entry): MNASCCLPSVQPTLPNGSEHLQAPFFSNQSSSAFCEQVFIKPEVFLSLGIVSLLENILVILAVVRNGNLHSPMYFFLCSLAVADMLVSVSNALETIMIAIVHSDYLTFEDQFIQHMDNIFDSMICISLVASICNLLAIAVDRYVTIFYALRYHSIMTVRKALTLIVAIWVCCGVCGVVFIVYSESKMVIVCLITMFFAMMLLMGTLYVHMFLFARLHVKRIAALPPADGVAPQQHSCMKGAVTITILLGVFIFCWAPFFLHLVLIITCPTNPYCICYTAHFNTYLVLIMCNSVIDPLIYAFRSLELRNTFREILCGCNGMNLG
# Method Notes: In vitro agonist potency (EC50) at melanocortin receptor type 3, cAMP in recombinant cell line
pEC50: −log10 of the molar value.
Binary call on pEC50: Yes from 6 upward, No beneath that.

Use these answered entries as a reference point.
Molecule: COC(=O)N1CCN(C(=O)[C@@H]2CN(c3cccnn3)C[C@H]2c2ccc(F)cc2F)CCCC1c1ccccc1 (mixture of isomers)
Assigned Category: Yes

Molecule: CC(=O)N1CCN(C(=O)[C@@H]2CN(c3cccnn3)C[C@H]2c2ccc(F)cc2F)CCCC1c1ccccc1 (mixture of isomers)
Assigned Category: Yes

Molecule: COc1ccc([C@@H]2CN(C(C)(C)C)C[C@H]2C(=O)N2CCC[C@@H](c3ccc(Cl)cc3)N(C(C)=O)CC2)c(F)c1
Assigned Category: No

Is reported pEC50 greater than or equal to 6 here: CNC(=O)N1CCN(C(=O)[C@@H]2CN(c3cccnn3)C[C@H]2c2ccc(F)cc2F)CCCC1c1ccccc1 (mixture of isomers) Yes

Is reported pEC50 greater than or equal to 6 here: COc1ccc([C@@H]2CN(c3ccc(=O)n(C)n3)C[C@H]2C(=O)N2CCC[C@@H](c3ccc(Cl)cc3)N(C(=O)C3CC3)CC2)c(F)c1 Yes

---

# Measurement Target: CYP3A4 (Homo sapiens, UniProt P08684)
# Construct: utilizes human liver microsomes together with isoform-specific clinical drug probes; from tissue; host or cells: human liver microsomes
# Method Notes: High density DDI 3 μM cocktail screen in human liver microsomes, midazolam probe
# Assay type: in vitro ADME
# Particulars: human, liver microsomes, probe midazolam, read-out: % inhibition 3A4 @ 3 μM
Below, each entry is listed with its recorded inhibition at 3 µM.
Respond with the figure and its unit, in that order.

Take a look at these entries with their results.
Compound: CC(C)OC(=O)N1CCN(C(=O)[C@@H]2CN(C(C)(C)C)C[C@H]2c2ccc(F)cc2F)CCC[C@H]1c1ccc(Cl)cc1 [Example 53]
Measurement Target: CYP3A4 (Homo sapiens, UniProt P08684)
Reported Metric: inhibition at 3 µM
Test Result: 58.5%
--
Compound: Cn1nc(N2C[C@@H](C(=O)N3CCCC(c4ccc(Cl)cc4)N(S(C)(=O)=O)CC3)[C@H](c3ccc(F)cc3F)C2)ccc1=O (mixture of isomers) [Example 81]
Measurement Target: CYP3A4 (Homo sapiens, UniProt P08684)
Reported Metric: inhibition at 3 µM
Test Result: 32%
--
Compound: COc1ccc([C@@H]2CN(c3ccc(C#N)nn3)C[C@H]2C(=O)N2CCC[C@@H](c3ccc(Cl)cc3)N(C(=O)CC(F)(F)F)CC2)c(F)c1 [Example 26]
Measurement Target: CYP3A4 (Homo sapiens, UniProt P08684)
Reported Metric: inhibition at 3 µM
Test Result: 20.4%

Could you share which inhibition at 3 µM value was measured for CC(C)(C)N1C[C@@H](C(=O)N2CCC[C@@H](c3ccc(Cl)cc3)N(C(=O)C3CC(F)(F)C3)CC2)[C@H](c2ccc(Cl)cn2)C1 [Example 63] ? 55.6%

Could you share which inhibition at 3 µM value was measured for COc1ccc([C@@H]2CN(c3ccc(C#N)nn3)C[C@H]2C(=O)N2CCC[C@@H](c3ccc(Cl)cc3)N(C(C)=O)CC2)c(F)c1 [Example 67] ? 29.5%

Could you share which inhibition at 3 µM value was measured for COC(=O)N1CCN(C(=O)[C@@H]2CN(c3ccc(C#N)nn3)C[C@H]2c2ccc(Cl)cn2)CCC[C@H]1c1ccc(Cl)cc1 [Example 98] ? 46.9%
